System: Mus musculus
Experiment: In vivo antitumor activity against P-388 Leukemia cell line in female BDF1 mice after oral administered dose of 25 mg/kg
Type: functional
Measured Property: T/C (%)

In [3]: df
Out[3]:
                                   compound  observed_result
0  O=C1OC(n2cc(F)c(=O)n(C3OC(=O)c4ccccc43)c2=O)c2ccccc21 (configuration not stated)               97
1  O=C1OC(n2cc(F)c(=O)[nH]c2=O)c2ccccc21 (configuration not stated)              118
2  O=C1OC(n2c(=O)c(F)cn(C3CCCO3)c2=O)c2ccccc21 (configuration not stated)              104
3  Cc1ccccc1C(=O)n1c(=O)c(F)cn(C2OC(=O)c3ccccc32)c1=O (configuration not stated)              113
4  O=C1OC(n2c(=O)[nH]cc(F)c2=O)c2ccccc21 (configuration not stated)              111
5  CC(=O)n1cc(F)c(=O)n(C2OC(=O)c3ccccc32)c1=O (configuration not stated)              106
6  O=c1[nH]c(=O)n(C2CCCO2)cc1F (configuration not stated)              115
